# TEST PROTOCOL: RP, Phenomenex Kinetex PS C18, 150 × 3 mm, 2.6 µm, 40 °C, 0.35 mL/min, estimated dead time 1.9 min; A: water + 5 mM ammonium acetate, pH 5; B: methanol; gradient (min/%B) 0/5 20/100 25/100 30/5
# ASSAY CONDITIONS: stereoisomer not certain
PROPERTY NAME: LC retention time (min)
Give just the number in min; leave the unit off.

Sample answers from the record:
> print(dat)
                          molecule  quantitative.result
1     CCc1cccc(CC)c1N(COC)C(=O)CCl                 16.4
2  Cc1cccc(C)c1N(Cn1cccn1)C(=O)CCl                 14.1
3        CNC(=O)C=C(C)OP(=O)(OC)OC                 7.86

Turning to the following molecule.
// LC retention time lookup, key: N#Cc1nn(-c2c(Cl)cc(C(F)(F)F)cc2Cl)c(N)c1S(=O)C(F)(F)F (centres undefined) 16.6
